- Tested on: 786-0 renal
- assay: NCI tumour cell line growth inhibition, 48 h
measurement type: TGI

Recorded results for 9 compounds are shown here.
O=C(Nc1ccc(CO)cc1)c1coc2ccccc2c1=O: > 100 µM
Cc1ccc(/C(O)=C/C(=O)C(=O)/C=C(\O)c2ccc(C)cc2C)c(C)c1: 4.28 µM
C[C@H](N)C(=O)Nc1ccc(-c2nc3ccccc3s2)cc1: 29.1 µM
O=C(Nc1cc(Cl)ccc1Cl)C(=O)C(c1cnc2ccccc2n1)[N+](=O)[O-] (stereo not given): > 100 µM
COc1ccc(OC)c2c(/C=C/c3ccc(N(C)C)cc3)ccnc12: > 10 µM
CC(C)OC(=O)NNc1cc(Cl)ccc1Cl: > 100 µM
CC(=O)O[C@H]1C#C/C=C\C#CC[C@@H]2C(=O)N[C@@H]12: > 88.3 µM
C[C@]12CC[C@H](O)C[C@H]1CC[C@@H]1[C@@H]2CC[C@]2(C)[C@@H](C3=CC(=O)OC3)CC[C@]12O: 0.142 µM
CCCCC1(CN2CCOCC2)S/C(=N/c2nc(CC(=O)OCC)cs2)NC1=O (stereo not given): > 100 µM

Read the next record carefully.
stdin: // query TGI value for entry Cc1ccc(-c2cc(N)n(-c3nc4c(c(=O)n(C)c(=O)n4C)n3C)n2)cc1
stdout: > 100 µM

###

- Tested on: SK-MEL-2 melanoma
- assay: NCI tumour cell line growth inhibition, 48 h
measurement type: TGI

Recorded results for 5 compounds are shown here.
Cc1ccc2c(=O)cc(-c3cccs3)[nH]c2n1: > 82.7 µM
CC12CCCCC1(C)C2Sc1ccccc1 (stereo unspecified): 50.7 µM
Oc1cn(-c2ccc(Cl)cc2)nc1-c1n[nH]c(=S)n1C1CCCCC1: > 100 µM
CC(C)(C=O)CC(C#N)/C(=N\NC(N)=O)C(=O)Nc1ccccc1C(N)=O (stereo unspecified): > 100 µM
Cc1ccc(C2(O)CC(c3ccc([N+](=O)[O-])o3)=NN2C(=O)COc2ccc(Cl)cc2)cc1 (stereo unspecified): 16.1 µM

stdin: // query TGI value for entry N=C(N)c1ccc(N=Nc2c(O)ccc3c2[nH]c2ccccc23)cc1
stdout: > 100 µM

stdin: // query TGI value for entry CCOC(=O)c1ccc(N2C(=S)N(C(=O)c3ccccc3)C(=Nc3ccccc3)C2=Nc2ccccc2)cc1
stdout: > 100 µM

stdin: // query TGI value for entry O=C(Nc1ccc(Br)cc1)c1ccc(Cl)c(Cl)c1
stdout: > 29.8 µM

stdin: // query TGI value for entry N.N.N.N.[Cl-].[Co+3].[N-]=[N+]=[N-].[N-]=[N+]=[N-]
stdout: > 100 µM

stdin: // query TGI value for entry NC(=O)NNC(=O)c1nc[nH]c1[N+](=O)[O-]
stdout: > 100 µM

stdin: // query TGI value for entry O=C(O)c1ccc(S(=O)(=O)c2ccccc2[N+](=O)[O-])cc1
stdout: > 10 µM

stdin: // query TGI value for entry C=CCNC(=O)N(CCC)CCCCC(NC(C)=O)C(=O)NCc1ccccc1 (stereo unspecified)
stdout: > 100 µM

stdin: // query TGI value for entry Cc1cc[c-]cc1.Fc1c[c-]c(-c2ccccn2)c(F)c1.[Pt+2].c1ccc(P(C[PH+](c2ccccc2)c2ccccc2)c2ccccc2)cc1
stdout: 6.61 µM

stdin: // query TGI value for entry NC(CS/C(Cl)=C/Cl)C(=O)O (stereo unspecified)
stdout: > 100 µM

stdin: // query TGI value for entry [Au+].[Au+].[Au+].[c-]1nccn1Cc1ccccc1.[c-]1nccn1Cc1ccccc1.[c-]1nccn1Cc1ccccc1
stdout: 3.9 µM
